# target.system: EPHB1 (UniProt P54762)
# Sequence (P54762 whole entry, looked up): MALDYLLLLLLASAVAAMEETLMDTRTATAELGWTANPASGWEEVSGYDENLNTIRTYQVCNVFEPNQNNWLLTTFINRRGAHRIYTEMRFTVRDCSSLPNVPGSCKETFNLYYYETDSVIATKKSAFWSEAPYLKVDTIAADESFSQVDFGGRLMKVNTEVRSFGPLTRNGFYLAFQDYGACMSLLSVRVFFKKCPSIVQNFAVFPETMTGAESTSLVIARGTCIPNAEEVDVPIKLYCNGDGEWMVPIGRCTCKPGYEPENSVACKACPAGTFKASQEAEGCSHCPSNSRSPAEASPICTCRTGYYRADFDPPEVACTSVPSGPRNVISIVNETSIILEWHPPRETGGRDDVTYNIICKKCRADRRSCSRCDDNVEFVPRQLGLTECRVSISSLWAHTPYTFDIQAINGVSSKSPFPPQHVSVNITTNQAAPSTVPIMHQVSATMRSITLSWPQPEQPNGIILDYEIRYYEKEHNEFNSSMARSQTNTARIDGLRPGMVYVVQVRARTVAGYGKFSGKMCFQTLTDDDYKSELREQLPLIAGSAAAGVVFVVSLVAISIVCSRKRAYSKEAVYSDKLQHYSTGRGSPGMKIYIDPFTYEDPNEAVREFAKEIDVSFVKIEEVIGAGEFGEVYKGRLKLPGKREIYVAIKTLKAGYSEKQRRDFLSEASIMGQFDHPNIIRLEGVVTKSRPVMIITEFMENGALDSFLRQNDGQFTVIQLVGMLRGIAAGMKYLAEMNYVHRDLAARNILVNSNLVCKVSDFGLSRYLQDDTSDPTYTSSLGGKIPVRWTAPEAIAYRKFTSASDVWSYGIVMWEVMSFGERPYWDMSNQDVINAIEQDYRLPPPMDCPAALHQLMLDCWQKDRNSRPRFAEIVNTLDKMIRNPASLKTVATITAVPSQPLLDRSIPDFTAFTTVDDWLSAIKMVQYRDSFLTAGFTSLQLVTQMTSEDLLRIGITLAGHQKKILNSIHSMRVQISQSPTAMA
# assay.comment: phosphorylation enrichment, bacterial display (enrichment ratio); higher = better substrate or ligand; peptides without Tyr show the background;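 further: 11-residue human phosphosite peptides and single-mutation variants displayed on the E. coli surface, counted by deep sequencing, each peptide's frequency after selection divided by its frequency in the unselected input library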;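 further: frequency after pTyr selection over input frequency; kinase dosed for 20-30% of maximal phosphorylation in three min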
Reported phosphorylation enrichment is given for each of the following sequences.

{"residue.string": "ESPGLYGFLNV [BCR_Y910]", "phosphorylation enrichment": 0.586}
{"residue.string": "YRIDHYLGKEM [G6PD_Y202]", "phosphorylation enrichment": 0.467}
{"residue.string": "MSSHHCDFKKF [ZNF445_Y428_Y428C_YF]", "phosphorylation enrichment": 0.401}
{"residue.string": "QELRRYLKSGV [MICA_Y194]", "phosphorylation enrichment": 0.765}
{"residue.string": "VRTGIYHGREP [PIK3CA_Y361_G364R]", "phosphorylation enrichment": 0.302}
{"residue.string": "HNLFSYPTKFE [MYO3A_Y1396_H1400Y_YF]", "phosphorylation enrichment": 0.474}
{"residue.string": "WDLPEYSYKDP [ITGA3_Y237_S235P]", "phosphorylation enrichment": 0.631}
{"residue.string": "HFGNNYRDVLQ [MACC1_Y803_YF]", "phosphorylation enrichment": 0.648}
{"residue.string": "RSHLSYDVTPE [IQGAP3_Y1098_P1097S]", "phosphorylation enrichment": 0.767}
{"residue.string": "HKLSYCEYDFE [BTK_Y40_Y40C]", "phosphorylation enrichment": 0.857}
{"residue.string": "EFFENYIEELK [PARP4_Y218_F215Y_YF]", "phosphorylation enrichment": 0.617}
{"residue.string": "CKLCQYFLDHL [ATRX_Y1849_Y1847C_YF]", "phosphorylation enrichment": 0.571}
{"residue.string": "EATKVYLDDPT [G6PD_Y322_G321V]", "phosphorylation enrichment": 0.482}
{"residue.string": "SLESAYPEVSQ [TTF1_Y357_G360V]", "phosphorylation enrichment": 0.514}
{"residue.string": "QAIDEYEKWLE [MAP9_Y603_N601D]", "phosphorylation enrichment": 1.06}
{"residue.string": "IKAGAYDFPSL [CAMK2A_Y230_P235L]", "phosphorylation enrichment": 0.418}

* * *

# target.system: EPHB1 (UniProt P54762)
# assay.comment: phosphorylation enrichment, bacterial display (enrichment ratio); higher = better substrate or ligand; peptides without Tyr show the background
Reported phosphorylation enrichment is given for each of the following sequences.
reported.endpoint: phosphorylation enrichment

{"residue.string": "CTSIHYNFMCN [TP53_Y234_T231S_YF]", "experimental.result": 0.54}
{"residue.string": "ARLEFCENEKK [IRS1_Y47_Y47C_YF]", "experimental.result": 0.636}
{"residue.string": "GLDGSYLLRDS [SH2D1A_Y29]", "experimental.result": 0.371}
{"residue.string": "QGIIIYRAAYF [SLC25A4_Y187]", "experimental.result": 0.945}
{"residue.string": "NREGVYRVFAP [TGFBI_Y537_T538R]", "experimental.result": 0.364}
{"residue.string": "EVDETYVPKEF [ALB_Y521]", "experimental.result": 0.613}
{"residue.string": "TPTYPYLLPKS [PLD2_Y580]", "experimental.result": 0.29}
{"residue.string": "SIKDKHVTALF [KCNH2_Y611_Y611H_YF]", "experimental.result": 0.354}
{"residue.string": "GEVLVYVEDPA [FLNA_Y319]", "experimental.result": 0.798}
{"residue.string": "HGTKVYIDPFT [EPHB4_Y590]", "experimental.result": 0.788}
{"residue.string": "KIKGWYEKCEP [KRT26_Y119]", "experimental.result": 0.594}
{"residue.string": "EVESPYEVRDY [GIGYF2_Y1168_H1171R]", "experimental.result": 0.785}
{"residue.string": "SVVVPCEPPEV [TP53_Y220_Y220C]", "experimental.result": 0.534}
{"residue.string": "AHARMYGVLPW [PLP1_Y207_D203H]", "experimental.result": 0.519}
{"residue.string": "DTQNSYWCATS [TSC1_Y304_G305W]", "experimental.result": 0.535}
{"residue.string": "LLSVAYKNVVG [YWHAG_Y49]", "experimental.result": 0.645}
{"residue.string": "RLNAIYQNNLT [GSR_Y158]", "experimental.result": 0.632}
{"residue.string": "QPAGNYSLSSV [ARFGAP3_Y473]", "experimental.result": 0.866}
{"residue.string": "PLGPLYASSNP [INSR_Y992]", "experimental.result": 1.14}
{"residue.string": "PFTRNYYVWAV [CYBA_Y87_R90W]", "experimental.result": 3.1}
{"residue.string": "AEPHTYEEPGR [EPHA8_Y616]", "experimental.result": 0.511}
{"residue.string": "QLHREYCLSPR [HJURP_Y445]", "experimental.result": 0.784}
